Data provenance: ChEMBL document CHEMBL1145498

assayedSystem: Serine/threonine-protein kinase OSR1 (Homo sapiens)
For each record, check the reported ΔTm: if it is below 2 °C write T, else write F.

# input Given O=C1c2ccccc2-[n+]2ccc3c([nH]c4ccccc43)c21 [FASCAPLYSIN CHLORIDE] , is recorded ΔTm strictly lower than 2 °C?
# output T

----------
Listed here: items and their measured ΔTm.
assayedSystem: Calcium/calmodulin-dependent protein kinase kinase 2 (Homo sapiens)
Sequence (Q96RR4 2-588 limits assumed): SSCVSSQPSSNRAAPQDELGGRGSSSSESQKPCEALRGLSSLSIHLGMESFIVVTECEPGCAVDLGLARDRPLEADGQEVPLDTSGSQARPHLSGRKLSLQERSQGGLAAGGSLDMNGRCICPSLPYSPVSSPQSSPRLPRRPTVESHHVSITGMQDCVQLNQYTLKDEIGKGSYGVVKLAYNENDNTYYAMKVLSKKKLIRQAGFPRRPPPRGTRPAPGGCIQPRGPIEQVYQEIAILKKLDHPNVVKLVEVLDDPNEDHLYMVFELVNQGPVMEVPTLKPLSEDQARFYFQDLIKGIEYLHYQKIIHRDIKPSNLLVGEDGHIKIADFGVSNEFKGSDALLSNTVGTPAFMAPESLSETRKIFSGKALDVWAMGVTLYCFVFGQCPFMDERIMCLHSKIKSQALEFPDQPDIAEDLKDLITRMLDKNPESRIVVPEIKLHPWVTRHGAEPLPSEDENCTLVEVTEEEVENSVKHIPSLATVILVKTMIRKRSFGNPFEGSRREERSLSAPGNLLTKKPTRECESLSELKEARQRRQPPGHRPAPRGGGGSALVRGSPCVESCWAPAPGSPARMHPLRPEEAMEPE
Form entry: value (°C) — number only.

>  <molecule>
O=C1Nc2ccc(S(=O)(=O)O)cc2/C1=C1/Nc2ccccc2/C1=N\O

>  <quantityMeasured>
ΔTm

>  <measValue>
4.9

$$$$
>  <molecule>
NC1=NC(=O)/C(=C2\CCNC(=O)c3[nH]c(Br)cc32)N1

>  <quantityMeasured>
ΔTm

>  <measValue>
3.4

$$$$
>  <molecule>
COc1nccc(-c2c(-c3ccc(F)cc3)ncn2[C@H]2CC[C@H](O)CC2)n1

>  <quantityMeasured>
ΔTm

>  <measValue>
-0.6

$$$$
>  <molecule>
CN(C)CC1CCn2c(c(C3=C(c4c[nH]c5ccccc45)C(=O)NC3=O)c3ccccc32)C1 (stereo not given)

>  <quantityMeasured>
ΔTm

>  <measValue>
-0.8

$$$$
>  <molecule>
N#C/C(=C(/N)Sc1ccc(N)cc1)c1ccccc1C(F)(F)F

>  <quantityMeasured>
ΔTm

>  <measValue>
-0.2

$$$$

Tested on Calcium/calmodulin-dependent protein kinase kinase 2 (Homo sapiens), the item Cc1ccc(NC(=O)c2cccc(N(C)C)c2)cc1NC(=O)c1ccc(O)cc1 showed ΔTm equal to 0.4

Known value: Calcium/calmodulin-dependent protein kinase kinase 2 (Homo sapiens) ΔTm of the molecule Cc1ccc(NC(=O)c2ccc(CN3CCN(C)CC3)cc2)cc1Nc1nccc(-c2cccnc2)n1 equals 2.8

----------
assayedSystem: Calcium/calmodulin-dependent protein kinase kinase 2 (Homo sapiens)
Each entry below carries its recorded ΔTm.
Hi! Could you send only the number? It should be in °C, unit omitted.

>  <molecule>
N#CCCc1ccc2c(c1)-c1[nH]c3ccc([N+](=O)[O-])cc3c1CC(=O)N2

>  <assayedSystem>
Calcium/calmodulin-dependent protein kinase kinase 2 (Homo sapiens)

>  <ΔTm, °C>
2.3

$$$$
>  <molecule>
NS(=O)(=O)c1ccc(Nc2nc(OCC3CCCCC3)c3nc[nH]c3n2)cc1

>  <assayedSystem>
Calcium/calmodulin-dependent protein kinase kinase 2 (Homo sapiens)

>  <ΔTm, °C>
0.8

$$$$
>  <molecule>
NC1=N/C(=C2/CCNC(=O)c3[nH]ccc32)C(=O)N1

>  <assayedSystem>
Calcium/calmodulin-dependent protein kinase kinase 2 (Homo sapiens)

>  <ΔTm, °C>
1.4

$$$$
>  <molecule>
O=C1NC(=O)c2c1c1c3ccccc3n3c1c1c2c2ccccc2n1C1CCC3O1

>  <assayedSystem>
Calcium/calmodulin-dependent protein kinase kinase 2 (Homo sapiens)

>  <ΔTm, °C>
-0.3

$$$$

// switching to the query compound
Please fill in: ΔTm reported for COc1cc(OC)c(/C=C2\C(=O)Nc3ccccc32)c(OC)c1 = 0.4

----------
assayedSystem: Casein kinase I isoform gamma-1 (Homo sapiens) (UniProt Q9HCP0)
Sequence (Q9HCP0 whole entry, looked up, canonical isoform): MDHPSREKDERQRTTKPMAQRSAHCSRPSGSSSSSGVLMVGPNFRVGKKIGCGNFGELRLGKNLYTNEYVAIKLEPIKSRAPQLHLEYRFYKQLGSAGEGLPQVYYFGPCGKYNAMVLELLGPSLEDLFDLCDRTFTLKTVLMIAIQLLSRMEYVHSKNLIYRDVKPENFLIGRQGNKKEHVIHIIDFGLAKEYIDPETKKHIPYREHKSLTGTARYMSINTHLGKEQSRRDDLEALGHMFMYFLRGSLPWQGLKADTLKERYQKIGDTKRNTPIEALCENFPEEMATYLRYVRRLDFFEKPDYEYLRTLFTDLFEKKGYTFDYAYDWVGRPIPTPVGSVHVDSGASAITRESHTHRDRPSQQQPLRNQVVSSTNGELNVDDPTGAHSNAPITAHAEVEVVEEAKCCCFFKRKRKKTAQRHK
Classify by measured ΔTm: condition met if it is equal to or exceeds 0.5 °C, condition not met if it is smaller.

Look over these answered cases.
>  <molecule>
CC(C)c1cc(/C=C(\C#N)C(=O)NCCCc2ccccc2)cc(C(C)C)c1O

>  <className>
condition met

$$$$
>  <molecule>
Oc1ccc(-c2nc(-c3ccc(F)cc3)c(-c3ccncc3)[nH]2)cc1

>  <className>
condition met

$$$$

# input Record O=C1NC(=O)c2c1c1c3ccccc3n3c1c1c2c2ccccc2n1C1CCC3O1 ; criterion: ΔTm no lower than 0.5 °C. Met?
# output condition not met

# input Is ΔTm at least 0.5 °C? Consider O=Nc1c(-c2c(O)[nH]c3ccccc23)[nH]c2ccccc12
# output condition not met

----------
assayedSystem: Calcium/calmodulin-dependent protein kinase type 1G (Homo sapiens) (UniProt Q96NX5)
Sequence (Q96NX5 whole entry): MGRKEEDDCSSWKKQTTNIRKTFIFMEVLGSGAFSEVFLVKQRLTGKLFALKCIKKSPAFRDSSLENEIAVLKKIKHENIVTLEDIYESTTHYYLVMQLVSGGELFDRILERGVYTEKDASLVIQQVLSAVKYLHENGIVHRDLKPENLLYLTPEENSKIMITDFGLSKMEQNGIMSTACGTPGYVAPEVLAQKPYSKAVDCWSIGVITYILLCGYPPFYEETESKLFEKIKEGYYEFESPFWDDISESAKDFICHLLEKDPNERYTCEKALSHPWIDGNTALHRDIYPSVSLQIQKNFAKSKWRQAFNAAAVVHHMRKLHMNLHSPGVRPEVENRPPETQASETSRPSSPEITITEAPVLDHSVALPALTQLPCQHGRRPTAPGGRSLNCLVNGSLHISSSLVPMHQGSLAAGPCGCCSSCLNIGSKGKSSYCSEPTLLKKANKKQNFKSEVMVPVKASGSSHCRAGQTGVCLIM
With a cut-off of 0.2 °C, any ΔTm strictly below it is called Satisfied; any ΔTm meeting it or above is called Not satisfied.

Check out these entries, answers already filled in.
>  <compound>
O=c1cc(N2CCOCC2)oc2c(-c3ccccc3)cccc12

>  <className>
Not satisfied

$$$$
>  <compound>
Cc1cc2ncc(-c3ccccc3)nc2cc1C

>  <className>
Not satisfied

$$$$
>  <compound>
O=C(O)/C=C/c1cc(CO)ccc1CO

>  <className>
Satisfied

$$$$
>  <compound>
Cc1ccc(NC(=O)c2ccc(CN3CCN(C)CC3)cc2)cc1Nc1nccc(-c2cccnc2)n1

>  <className>
Satisfied

$$$$
>  <compound>
CN1CCc2[nH]c(=S)c(C#N)c(-c3cccs3)c2C1

>  <className>
Not satisfied

$$$$

# input Is ΔTm strictly under 0.2 °C for the entry Cc1nc(N)sc1-c1ccnc(Nc2cccc([N+](=O)[O-])c2)n1 ?
# output Not satisfied

# input Please check: ΔTm for CCOc1cc2ncnc(Nc3cccc(Br)c3)c2cc1OCC , strictly under 0.2 °C or not?
# output Not satisfied

# input Item CCCNC(=O)Nc1ccc(Oc2ncnc3cc(OC)c(OC)cc23)cc1Cl [KRN-633] : ΔTm beneath 0.2 °C, strictly?
# output Not satisfied

# input Record O=C1Nc2ccc(I)cc2/C1=C1/Nc2ccccc2/C1=N\O : is its ΔTm strictly below 0.2 °C?
# output Not satisfied

# input Lab log: compare recorded ΔTm with 0.2 °C; is it strictly lower for COc1ccc(CNC(=O)Nc2ncc([N+](=O)[O-])s2)cc1 ?
# output Not satisfied

# input ΔTm strictly < 0.2 °C for this compound? O=C1Nc2cc(Br)ccc2/C1=C1/Nc2ccccc2/C1=N\O
# output Satisfied

# input Input COc1ccc(Cl)cc1NC(=O)Nc1cc(C)nc2ccccc12 ; condition: ΔTm strictly below 0.2 °C. Does it hold?
# output Not satisfied

# input Regarding CC(C)n1cnc2/c(=N/c3cccc(Cl)c3)nc(NCCO)[nH]c21 , kindly confirm whether its ΔTm is beneath 0.2 °C.
# output Satisfied

# input Lab log: compare recorded ΔTm with 0.2 °C; is it strictly lower for COc1cc2ncnc(Nc3cccc(Br)c3)c2cc1OC ?
# output Satisfied

# input # check: ΔTm < 0.2 °C for OC[C@H]1O[C@@H](n2cnc3cc(Cl)c(Cl)cc32)[C@H](O)[C@@H]1O
# output Satisfied

----------
assayedSystem: Lymphokine-activated killer T-cell-originated protein kinase (Homo sapiens) (UniProt Q96KB5)
Sequence (Q96KB5 whole entry): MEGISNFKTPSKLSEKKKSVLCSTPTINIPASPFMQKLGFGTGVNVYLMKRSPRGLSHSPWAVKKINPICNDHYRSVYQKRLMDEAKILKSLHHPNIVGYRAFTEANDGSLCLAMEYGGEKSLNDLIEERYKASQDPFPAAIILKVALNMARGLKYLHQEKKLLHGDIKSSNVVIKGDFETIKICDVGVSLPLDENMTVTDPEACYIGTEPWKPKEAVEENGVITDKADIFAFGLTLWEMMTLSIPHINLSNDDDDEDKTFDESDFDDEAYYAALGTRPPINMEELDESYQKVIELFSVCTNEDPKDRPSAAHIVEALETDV
Rule: ΔTm below 0.3 °C gives yes, anything at or above gives no.

Example cases with answers are listed next.
>  <compound>
CCOc1cc2ncnc(Nc3cccc(Br)c3)c2cc1OCC

>  <className>
yes

$$$$
>  <compound>
O=C(O)/C=C/c1cc(CO)ccc1CO

>  <className>
no

$$$$
>  <compound>
Nc1cccc(-c2cc3c(Oc4cccc(O)c4)ncnc3[nH]2)c1

>  <className>
no

$$$$
>  <compound>
O=c1sn(Cc2ccccc2)c(=S)n1Cc1ccccc1

>  <className>
yes

$$$$
>  <compound>
C=CNC#N

>  <className>
yes

$$$$

# input Does Cl.Cn1cc(C2=C(c3ccc4cc5n(c4c3)CCC(CN)C5)C(=O)NC2=O)c2ccccc21 (stereo unspecified) have ΔTm strictly under 0.3 °C?
# output yes

# input A record lists COC(=O)[C@]1(O)C[C@@H]2O[C@@]1(C)n1c3ccccc3c3c4c(c5c6ccccc6n2c5c31)C(=O)NC4 (single isomer, unassigned) . Is its ΔTm below 0.3 °C?
# output no

# input For COc1ccc2c(c[n+](C)c3c4cc5c(cc4ccc23)OCO5)c1OC [CHELERYTHRINE CHLORIDE] , is the recorded ΔTm below the cut-off of 0.3 °C?
# output yes

# input Determine if O=c1cc(-c2ccc(O)cc2)oc2cc(O)cc(O)c12 shows ΔTm strictly lower than 0.3 °C.
# output no

# input Criterion: ΔTm strictly below 0.3 °C. Is it met by N#C/C(=C\c1ccc(O)c(O)c1)C(=O)NCc1ccccc1 ?
# output no

----------
ΔTm data for Dual specificity protein kinase CLK3 (Homo sapiens) (UniProt P49761) follow.
Numeric only. Scale: °C

>  <compound>
CCCNC(=O)Nc1ccc(Oc2ncnc3cc(OC)c(OC)cc23)cc1Cl [KRN-633]

>  <assayedSystem>
Dual specificity protein kinase CLK3 (Homo sapiens) (UniProt P49761)
Sequence (P49761 whole entry, looked up): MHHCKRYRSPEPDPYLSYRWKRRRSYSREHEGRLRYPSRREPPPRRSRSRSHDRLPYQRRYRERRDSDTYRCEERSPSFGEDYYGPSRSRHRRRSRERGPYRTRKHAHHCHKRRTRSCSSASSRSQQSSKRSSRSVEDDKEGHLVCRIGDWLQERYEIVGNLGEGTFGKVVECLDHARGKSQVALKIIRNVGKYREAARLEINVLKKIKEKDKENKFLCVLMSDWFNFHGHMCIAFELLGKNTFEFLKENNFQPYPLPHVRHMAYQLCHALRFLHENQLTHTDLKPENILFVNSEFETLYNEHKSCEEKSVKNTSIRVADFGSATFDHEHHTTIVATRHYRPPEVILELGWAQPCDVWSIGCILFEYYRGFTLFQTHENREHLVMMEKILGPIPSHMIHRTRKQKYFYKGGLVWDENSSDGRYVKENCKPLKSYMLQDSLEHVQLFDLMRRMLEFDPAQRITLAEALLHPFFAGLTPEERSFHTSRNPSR

>  <endpointUnit>
°C

>  <ΔTm>
0.1

$$$$
>  <compound>
O=c1cc(N2CCOCC2)oc2c1ccc1ccccc12

>  <assayedSystem>
Dual specificity protein kinase CLK3 (Homo sapiens) (UniProt P49761)

>  <endpointUnit>
°C

>  <ΔTm>
0.1

$$$$
>  <compound>
Cn1cc(C2=C(c3cn(CCCSC(=N)N)c4ccccc34)C(=O)NC2=O)c2ccccc21

>  <assayedSystem>
Dual specificity protein kinase CLK3 (Homo sapiens) (UniProt P49761)

>  <endpointUnit>
°C

>  <ΔTm>
4.1

$$$$
>  <compound>
O=C1c2ccccc2-[n+]2ccc3c([nH]c4ccccc43)c21 [FASCAPLYSIN CHLORIDE]

>  <assayedSystem>
Dual specificity protein kinase CLK3 (Homo sapiens) (UniProt P49761)

>  <endpointUnit>
°C

>  <ΔTm>
-0.9

$$$$
>  <compound>
O=C1Cc2c([nH]c3ccc(Br)cc23)-c2ccccc2N1 [KENPAULLONE]

>  <assayedSystem>
Dual specificity protein kinase CLK3 (Homo sapiens) (UniProt P49761)

>  <endpointUnit>
°C

>  <ΔTm>
0.8

$$$$
>  <compound>
O=C(Nc1cccc(Nc2cc(Nc3cccc(C(F)(F)F)c3)ncn2)c1)C1CC1

>  <assayedSystem>
Dual specificity protein kinase CLK3 (Homo sapiens) (UniProt P49761)

>  <endpointUnit>
°C

>  <ΔTm>
1.5

$$$$
>  <compound>
CC(C)c1nn(-c2c(Cl)cccc2Cl)c2nc(Cc3ccc(OCCO)cc3)[nH]c(=O)c12

>  <assayedSystem>
Dual specificity protein kinase CLK3 (Homo sapiens) (UniProt P49761)

>  <endpointUnit>
°C

>  <ΔTm>
0.6

$$$$
>  <compound>
Nc1n[nH]c2nc3ccccc3nc12 [QUINOXALINE1]

>  <assayedSystem>
Dual specificity protein kinase CLK3 (Homo sapiens) (UniProt P49761)

>  <endpointUnit>
°C

>  <ΔTm>
0.5

$$$$
>  <compound>
N#C/C(=C1/Nc2ccccc2S1)c1ccnc(NCCc2cccnc2)n1

>  <assayedSystem>
Dual specificity protein kinase CLK3 (Homo sapiens) (UniProt P49761)

>  <endpointUnit>
°C

>  <ΔTm>
4.9

$$$$
>  <compound>
COc1cc2ncnc(Nc3cccc(O)c3)c2cc1OC

>  <assayedSystem>
Dual specificity protein kinase CLK3 (Homo sapiens) (UniProt P49761)

>  <endpointUnit>
°C

>  <ΔTm>
0.5

$$$$

// assay Dual specificity protein kinase CLK3 (Homo sapiens) (UniProt P49761), entry O=[N+]([O-])c1ccc(-c2nc(-c3ccc(F)cc3)c(-c3ccncc3)[nH]2)cc1 , ΔTm value = 0.1

// assay Dual specificity protein kinase CLK3 (Homo sapiens) (UniProt P49761), entry CCOC(=O)c1c(C)[nH]c(/C=C2\C(=O)Nc3ccccc32)c1C , ΔTm value = -0.1

Observed ΔTm, Dual specificity protein kinase CLK3 (Homo sapiens) (UniProt P49761), CN1CCC(Nc2ncc3ncnc(Nc4ccc(F)c(Cl)c4)c3n2)CC1 [FALNIDAMOL] : 2.7

Entry N#C/C(=C\c1ccc(O)c(O)c1)C(=O)Nc1ccccc1 : ΔTm on Dual specificity protein kinase CLK3 (Homo sapiens) (UniProt P49761) = 0.2

Reported Dual specificity protein kinase CLK3 (Homo sapiens) (UniProt P49761) ΔTm for item O=C1Nc2cc(Br)ccc2/C1=C1/Nc2ccccc2/C1=N\O was -0.8

Query CC(=O)O/N=C1/C(=C2/C(=O)Nc3cc(Br)ccc32)Nc2ccccc21 [6-BROMOINDIRUBIN-3'-ACETOXIME] on Dual specificity protein kinase CLK3 (Homo sapiens) (UniProt P49761); ΔTm returned: -0.4

Dual specificity protein kinase CLK3 (Homo sapiens) (UniProt P49761) ΔTm of NS(=O)(=O)c1ccc(Nc2nc(OCC3CCCCC3)c3nc[nH]c3n2)cc1 is 1.3

Fill in: Dual specificity protein kinase CLK3 (Homo sapiens) (UniProt P49761) ΔTm for CC(C)n1cnc2c(NCc3ccccc3O)nc(NCCCO)nc21 = 0.1

The compound O=C1C=C2C(=Nc3c2c2c(c4c3=NC3=C4CCC=C3)C=NC=2)CC1 on Dual specificity protein kinase CLK3 (Homo sapiens) (UniProt P49761): ΔTm was 2.3

Measured ΔTm (Dual specificity protein kinase CLK3 (Homo sapiens) (UniProt P49761)), entry Cc1ccc(NC(=O)c2cccc(N(C)C)c2)cc1NC(=O)c1ccc(O)cc1 : 0

Given the compound O=C1C(Cl)=C(N2C(=O)CCC2=O)C(=O)c2ccccc21 and test system Dual specificity protein kinase CLK3 (Homo sapiens) (UniProt P49761), the measured ΔTm is -1.3

ΔTm of Nc1nccc(-c2c(-c3ccc(F)cc3)ncn2C2CCNCC2)n1 , assay on Dual specificity protein kinase CLK3 (Homo sapiens) (UniProt P49761), is 0.1

Reported Dual specificity protein kinase CLK3 (Homo sapiens) (UniProt P49761) ΔTm for item CC(C)(C)c1nc2c3ccc(F)cc3c3c(=O)[nH]ccc3c2[nH]1 was 2.4
